All figures here come from patent US6946458B2.

Item-by-item account of Kirby-Bauer Disc Diffusion Test Results
# Tested on: MRSA USF654
# METHOD_SUMMARY: Kirby-Bauer agar disk diffusion
# Format: cell-based, Staphylococcus aureus
# Design: unit not given here
# EXPERIMENTAL_CONDITIONS: Table 5; beta-lactamase producing strain
Reply with the value as a number alone.

Observe how each entry below is paired with its result.
COMPOUND	Kirby-Bauer Disc Diffusion Test Results
COC1C(=O)N(SC)C1c1ccccc1 (racemic) [FIG. 11B]	26
COC1C(=O)N(SC)C1C#Cc1ccccc1 (racemic) [FIG. 11A]	27
CC1(C)S[C@@H]2[C@H](NC(=O)Cc3ccccc3)C(=O)N2[C@H]1C(=O)O [PenG, penicillin G, reference compound]	10

Give Kirby-Bauer Disc Diffusion Test Results for the following compound: COC1C(=O)N(SC)C1c1ccc(C#N)cc1 (racemic) [FIG. 11D] 0

Give Kirby-Bauer Disc Diffusion Test Results for the following compound: CN[C@H](CC(C)C)C(=O)N[C@H]1C(=O)N[C@@H](CC(N)=O)C(=O)N[C@H]2C(=O)N[C@H]3C(=O)N[C@H](C(=O)N[C@H](C(=O)O)c4cc(O)cc(O)c4-c4cc3ccc4O)[C@H](O)c3ccc(c(Cl)c3)Oc3cc2cc(c3O[C@@H]2O[C@H](CO)[C@@H](O)[C@H](O)[C@H]2O[C@H]2C[C@](C)(N)[C@H](O)[C@H](C)O2)Oc2ccc(cc2Cl)[C@H]1O [Vancomycin, reference compound] 19

Give Kirby-Bauer Disc Diffusion Test Results for the following compound: COC1C(=O)N(SC)C1c1ccccc1Cl (racemic) [FIG. 11F] 26

* * *

# Test system: MRSA USF656
# METHOD_SUMMARY: Kirby-Bauer agar disk diffusion
# Format: cell-based, Staphylococcus aureus
# EXPERIMENTAL_CONDITIONS: Table 3; 6-mm disks, 20 μg test compound, 24 hours
MEASUREMENT_TYPE: zone of growth inhibition, average diameter

Observe how each entry below is paired with its result.
> print(dat)
                                   compound  target.of.assay  measurement
1  COC1C(=O)N(SC)C1C#Cc1ccccc1 (racemic) [FIG. 2B]      MRSA USF656        30 mm
2  CSN1C(=O)C(OC(C)=O)C1CCc1ccccc1 (racemic) [FIG. 3F]      MRSA USF656        18 mm

Give zone of growth inhibition, average diameter for the following compound: COC1C(=O)N2SC(c3ccccc3)=C(I)C12 (stereo not drawn) [FIG. 2D] 0 mm

Give zone of growth inhibition, average diameter for the following compound: COC1C(=O)N(SC)C1CCc1ccccc1 (racemic) [FIG. 3E] 17 mm

Give zone of growth inhibition, average diameter for the following compound: COC1C(=O)N(SC)C1C(C#Cc1ccccc1)OC(C)=O (mixture of isomers) [FIG. 3H] 0 mm

Give zone of growth inhibition, average diameter for the following compound: CSN1C(=O)C(Oc2ccccc2)C1CCc1ccccc1 (racemic) [FIG. 3G] 13 mm

* * *

Item-by-item account of zone of growth inhibition, average diameter
# Test system: MRSA USF656
# METHOD_SUMMARY: Kirby-Bauer agar disk diffusion
# Format: cell-based, Staphylococcus aureus
# EXPERIMENTAL_CONDITIONS: Table 3; 6-mm disks, 20 μg test compound, 24 hours
Please respond with the number in mm and leave the unit unwritten.

Give zone of growth inhibition, average diameter for the following compound: CSN1C(=O)C(OC(C)=O)C1C=Cc1ccccc1 (racemic) [FIG. 3C] 17

Give zone of growth inhibition, average diameter for the following compound: CSN1C(=O)C(Oc2ccccc2)C1C=Cc1ccccc1 (racemic) [FIG. 3D] 13

Give zone of growth inhibition, average diameter for the following compound: CC1(C)S[C@@H]2[C@H](NC(=O)Cc3ccccc3)C(=O)N2[C@H]1C(=O)O [PenG, penicillin G, reference compound] 12
